# system: DMRTC2; also: reference of the scale not given here
# experiment_summary: pooled miR-30 sensor sort-seq; sequence = guide strand
# condition_notes: shRNA
Rule: condition met for sensor-assay potency score (higher = more potent) not less than -0.6, condition not met for anything less.

# example entries with known answers
sequence_data | class
TATCAGAGTTGAGTGTGTGCGG | condition met
ATTTGTGACACTCGCAAGCCTG | condition not met
TTCTGAAGTGGTTGGGAGCTTT | condition met
TCAGTACTGGGTGAGATCCTGG | condition met

Exercise: Evaluate ATATGCAGAGCAACAGAGGGGG : sensor-assay potency score (higher = more potent) at minimum -0.6?
Solution: condition met

Exercise: Note, next up: TATGCAGAGCAACAGAGGGGGC
Solution: condition not met
